- METHOD DESCRIPTION: Absorption spectra obtained in toluene at room temperature
- Assay type: physicochemical
- CONDITION SET: Table 3; zinc chlorins in toluene at room temperature
MEASUREMENT KIND: λmax (nm), Qy

1. CC(=O)c1cc2[n]3c1C=C1CC(C)(C)C(=N1)C=c1cc(C#C[Si](C(C)C)(C(C)C)C(C)C)c([n]1[Zn]3)=CC1=NC(=C2c2c(C)cc(C)cc2C)C=C1 [ZnC-E^3M^10A^13]; 652
2. CC(=O)c1cc2[n]3c1C=C1CC(C)(C)C(=N1)C=c1ccc([n]1[Zn]3)=CC1=NC(=C2c2c(C)cc(C)cc2C)C=C1 [ZnC-M^10A^13]; 632
3. Cc1cc(C)c(C2=c3cc(C#C[Si](C(C)C)(C(C)C)C(C)C)c4[n]3[Zn][n]3c(cc(C#C[Si](C(C)C)(C(C)C)C(C)C)c3C=C3C=CC2=N3)C=C2N=C(C=4)CC2(C)C)c(C)c1 [ZnC-E^3M^10E^13]; 646
